Collected Kd values appear next to each entry.
SYSTEM NAME: T1, human CD24 protein (ACRO) (human, UniProt P25063 27-59)
T1 construct: also called analyte human CD24 protein
T1 chain (looked up): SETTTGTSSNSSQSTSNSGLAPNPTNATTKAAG
PROCEDURE DETAILS: BLI (ForteBio Octet RED96e), antibody immobilised, human CD24 protein as analyte
Return type: number; implicit unit nM.

These solved cases illustrate the format of a correct answer.
{"BINDER": "chimeric antibody CH-01 (antibody, human IgG1, kappa, V domains shown, ms-01 variable regions on a human IgG framework, expressed in CHO cells) VH: QIQLVQSGPELKKPGETVKISCKASGYIFTDYAIHWVKQAPGKGLKWMGFINTATGEPTYADDFKGRFAFSLETSASTAYLQVNSLKNEDTATYFCTSGVHWGQGTTLTVSS VL: QIVLTQSPAIMSASLGEEITLTCSASSSVSSMHWYQQKSGTSPKLLIYSTSNLASGVPSRFSGSGSGTFYSLTISSVESEDAADYYCHHWTSYMYTFGGGTKLEIKR", "VALUE OBSERVED": 8.08}
{"BINDER": "humanized antibody hu-01-L3H2 (antibody, human IgG1, kappa, V domains shown, Humanized from ms-01: light chain L3, heavy chain H2) VH: QVQLVQSGSELKKPGASVKVSCKASGYIFTDYAIHWVRQAPGQGLEWMGFINTATGEPTYADDFKGRFVFSLDTSVSTAYLQISSLKAEDTAVYFCTSGVHWGQGTLVTVSS VL: DIQLTQSPSTLSASVGDRVTITCSASSSVSSMHWYQQKPGKSPKLLIYSTSNLASGVPSRFSGSGSGTEYTLTISSLQPDDFATYYCHHWTSYMYTFGGGTKVEIKR", "VALUE OBSERVED": 8.29}

// below: Kd requested for another binder
Requested field: Kd. Item: humanized antibody hu-01-L3H4 (antibody, human IgG1, kappa, V domains shown, Humanized from ms-01: light chain L3, heavy chain H4) VH: QVQLVQSGSELKKPGASVKVSCKASGYIFTDYAIHWVKQAPGQGLKWMGFINTATGEPTYADDFKGRFVFSLDTSVSTAYLQISSLKAEDTAVYFCTSGVHWGQGTLVTVSS VL: DIQLTQSPSTLSASVGDRVTITCSASSSVSSMHWYQQKPGKSPKLLIYSTSNLASGVPSRFSGSGSGTEYTLTISSLQPDDFATYYCHHWTSYMYTFGGGTKVEIKR
41.2
